Recorded measurements of Kd, one per entry
# SUBJECT OF TEST: T1, Human SIRPαV1 (NP_542970.1), Extracellular Domain + His-Tag (human, UniProt P78324 31-373)
# T1 construct: also called huSIRPαV1; hSIRPαV1; not shown: His-Tag
# ASSAY TEXT: SPR, antibody captured on Protein A/G, ECD-His analyte, 1:1 fit
Kindly provide the numeric value in nM only, without the unit symbol.

Antibody A1 (antibody, human IgG1, kappa, L234A L235A, V domains shown) VH: EVQLVESGGGLVQPGGSLRLSCAASGFTLSSYDMHWVRQAPGKGLEWVSAIGTAGDTYYTGSVKGRFTISRENAKNSLYLQMNSLRADDTAVYYCVRGGVWDDAFDIWGQGTMVTVSS VL: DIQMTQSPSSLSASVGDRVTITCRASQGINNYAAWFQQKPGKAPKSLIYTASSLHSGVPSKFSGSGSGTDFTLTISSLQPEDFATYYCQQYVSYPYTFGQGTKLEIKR | 8.6

Would you kindly look at the next entry?
[ask] Fill in the blank: the reported Kd of Antibody E19 (antibody, human IgG1, kappa, L234A L235A, V domains shown) VH: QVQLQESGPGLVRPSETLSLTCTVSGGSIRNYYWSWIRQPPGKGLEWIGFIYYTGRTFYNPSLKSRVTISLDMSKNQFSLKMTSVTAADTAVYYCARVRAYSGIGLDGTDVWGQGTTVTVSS VL: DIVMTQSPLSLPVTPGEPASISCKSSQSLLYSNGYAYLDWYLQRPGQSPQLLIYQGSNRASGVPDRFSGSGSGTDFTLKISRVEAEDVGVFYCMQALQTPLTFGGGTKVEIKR is ____.
[reply] 2.52
